- Assay: Human HepG2 cell viability assay in 384 well format
- Assay type: toxicity, cell-based
- Design: dose 125 nL, time 70.5 hour; concentration not given beside the values
- Stated conditions: HepG2 cells, read-out: Inhibition
Measurement kind: cytotoxicity at 70.5 h (%)

compound="CCC(C)[C@H](N)c1nnc(SCC(=O)Nc2ccc(C)cc2C)o1 (some centres undefined)" number=0.595
compound="CS(=O)(=O)NC1CCCN(c2ccc(C#N)cn2)C1 (centres undefined)" number=-6.77
compound=Cn1nc(CNC(=O)c2ccc(OC(F)(F)F)cc2)c2c1CCOC2 number=2.03
compound=CN1C[C@H](O)[C@]2(CCN(Cc3ccc(F)c(F)c3)C2)S1(=O)=O number=13.9
compound=Cc1ccsc1-c1nccn1CCS(C)(=O)=O number=16.2
compound=Cn1cc(Cl)c(C(=O)N2CCCN(C3Cc4ccccc4C3)CC2)n1 number=47.8
compound=O=C(Cn1cc(NC(=O)c2ccc(F)cc2F)cn1)NC1CCCC1 number=-4.45
compound="COc1ccc(CN(Cc2cncn2C)CC2CCCO2)cc1OC (centres undefined)" number=-10.3
compound=Cc1ccnn1CCC(=O)N1CCCC[C@@]2(C)[C@@H]1CCC(=O)N2C number=-4.62
compound="COc1cc(CCC(=O)NC2CCCN(C)C2)ccc1OCC(F)(F)F (centres undefined)" number=-7.07
compound="CN(C)c1ncc2c(n1)CCCC2NC(=O)C1CC1 (centres undefined)" number=-11.8
compound=O=C(COc1ccc2c(c1)CCCC2=O)NCc1ccco1 number=-4.86
compound="CCN(CC)Cc1ccc(C(=O)NC2CCc3cc(Cl)ccc32)o1 (centres undefined)" number=21.2
compound="CCN1C(=O)CCCC12CCCN(C(=O)c1cnccn1)C2 (centres undefined)" number=-5.91
compound=O=C(CCc1cc2n(n1)CCN(Cc1ccncc1)C2)N1CCCC1 number=18.6
compound=Cc1nc(COC[C@@]23CCC[C@@H]2CN(CC2CCOCC2)C3)cs1 number=-9.04
compound="CC(C)C(=O)N1Cc2ccccc2CC2(CCCCN2C)C1 (centres undefined)" number=-10.2
compound="CS(=O)(=O)N1CC2(CCCN(C3COC3)C2)Cc2ccccc21 (centres undefined)" number=-3.97
compound=CN(Cc1ccco1)Cc1ccccc1CNC(=O)c1cc[nH]n1 number=-6.12
compound=N#CC1(C(=O)N2CCN(Cc3cscn3)CC2)CCCCC1 number=-4.74
compound=CC(=O)N1[C@H](CN(C)C)C[C@@H]2CN(C(=O)c3cnc(C)cn3)CC[C@@H]21 number=-5.19
compound=Cc1cc(C(N)=O)ccc1NC(=O)c1nc(N2CCCCC2)ncc1Cl number=3.51
compound=CCOCc1nc(-c2ccc(F)cc2Cl)n(C)n1 number=-15.1
compound="Cc1cc2c(cc1C)C(NCc1nnc3n1CCCCC3)CCCO2 (centres undefined)" number=-7.63
